The measured values listed here are drawn from PubChem BioAssay AID624134.

assay: loss of viability in HepG2 cells – cell-based, CellTiter-Glo, cherry-picked, cytotoxicity control for Shn3 inhibitor project, dose response (AID 624134); details: CellTiter-Glo ATP luminescence, 48 h; series mostly up to 35 µM
Out of some 1,600 compounds screened, about 1,100 (69%) were called active. So high a share suggests a set chosen from earlier hits. Not all results are given here. Potency and affinity values are given separately. Records with an inconclusive call do not appear.
experimental_endpoint: outcome

compound	outcome
O=C(Nc1ccc(S(=O)(=O)N2CCN(Cc3ccccc3)CC2)cc1)c1cnccn1	inactive
CCC(=O)c1cn(CC(=O)Nc2cccc(C)c2C)c2ccccc12	inactive
CN(C)c1ncnc2c1C(c1ccccc1)C(C)(C)O2 (stereo not given)	inactive
O=C(Cn1cc(C(=O)C2CC2)c2ccccc21)Nc1ccccc1Cl	inactive
COc1ccc(NS(=O)(=O)c2ccc(NC(=O)C(CCSC)NC(N)=O)cc2)cc1 (stereo not given)	inactive

Record summary for Cc1ccc(OC(=O)CCC(=O)Oc2ccc(C)cc2C)c(C)c1 : reported outcome = inactive

Record summary for COc1ccc(C(=O)NNC(=O)c2cccc(S(=O)(=O)N3CCOCC3)c2)cc1 : reported outcome = inactive

Record summary for COc1c(C)cc(C(=O)C2CCCN(C(=O)c3cccc(-n4cccn4)c3)C2)cc1C (stereo not given) : reported outcome = inactive

Record summary for O=C(COC(=O)c1n[nH]c2ccccc12)Nc1ccc(S(=O)(=O)N2CCCC2)cc1 : reported outcome = inactive

Record summary for CCCCN1C2=NCCCN2c2cc(C)c(C)cc21 : reported outcome = inactive

* * *

test: loss of viability in HepG2 cells – cell-based, CellTiter-Glo, cherry-picked, cytotoxicity control for Shn3 inhibitor project, dose response (AID 624134); settings: CellTiter-Glo ATP luminescence, 48 h; series mostly up to 35 µM
About 1,100 (69%) of roughly 1,600 compounds were called active. So high a share suggests a set chosen from earlier hits. Only a sample is shown. Entries with a potency or affinity are not part of this list. Records with an inconclusive call do not appear.
experimental_endpoint: outcome

compound	experimental_endpoint	recorded_value
CC(C)c1c(O)c2c(n(-c3ccccc3)c1=O)CCCC2	outcome	inactive
COc1ccc([C@@]23Oc4cc(OC)cc(OC)c4[C@]2(O)[C@H](O)[C@H](C(=O)N(C)C)[C@H]3c2ccccc2)cc1	outcome	inactive
CCC(C)c1ccc(S(=O)(=O)N2CCN(C(=O)c3ccc(Cl)c(S(=O)(=O)N4CCOCC4)c3)CC2)cc1 (centres undefined)	outcome	inactive
O=C(Sc1cccc2cccnc12)c1ccccc1Br	outcome	inactive
CCCCNc1cccc2c1S(=O)(=O)N(CCCC)CC(COCc1ccccc1)O2 (centres undefined)	outcome	inactive
CC1Cc2cc(S(=O)(=O)N3CCC(C(=O)N4CCN(c5ccccc5F)CC4)CC3)ccc2N1C(=O)C1CC1 (centres undefined)	outcome	inactive

Record summary for CC(=O)N1c2ccc(S(=O)(=O)N3CCC(C(=O)N4CCN(c5ccccc5F)CC4)CC3)cc2CC1C (centres undefined) : reported outcome = inactive

Record summary for CC(C)(C)C(=O)Nc1cc(S(=O)(=O)N2CCCCC2)ccc1N1CCCCC1 : reported outcome = inactive

Record summary for COc1ccc(S(=O)(=O)N2CCOCC2)cc1NC(=O)COC(=O)CC1CC2CCC1C2 (centres undefined) : reported outcome = inactive
